Molecular target: E. coli RNase P holoenzyme (M1 P RNA + rnpA protein) (UniProt P0A7Y8)
Sequence: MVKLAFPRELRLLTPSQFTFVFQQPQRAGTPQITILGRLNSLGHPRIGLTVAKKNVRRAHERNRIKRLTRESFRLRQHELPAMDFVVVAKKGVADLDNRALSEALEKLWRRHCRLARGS
Assay: relative kcat/Km (krel) vs genomic leader AAAGAU (relative (reference leader = 1)); higher = faster RNase P cleavage
Conditions: fraction of substrate reacted: ~9-10% (9.79% repeat 1, 9.1% repeat 2)
Whole data set: some 4,100 sequences, median “relative kcat/Km (krel) vs genomic leader AAAGAU” near 1.7, cut for the highest 2% near 6.5. This excerpt belongs to a sample that is enriched for the highest values.
Consider the following sequences and their measured relative kcat/Km readings.
Answer as a number with no unit attached.

sequence_string=CTCACC reported_endpoint="relative kcat/Km" measured_result=2.93

Now take the following sequence into account.
E. coli RNase P holoenzyme (M1 P RNA + rnpA protein) (UniProt P0A7Y8) relative kcat/Km of `CTCGCG` is 2.22

---

Molecular target: E. coli RNase P holoenzyme (M1 P RNA + rnpA protein) (UniProt P0A7Y8)
Sequence: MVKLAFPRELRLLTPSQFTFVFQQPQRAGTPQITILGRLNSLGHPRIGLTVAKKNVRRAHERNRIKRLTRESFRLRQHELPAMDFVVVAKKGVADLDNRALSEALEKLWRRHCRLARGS
Test: relative kcat/Km (krel) vs genomic leader AAAGAU (relative (reference leader = 1)); higher = faster RNase P cleavage
Details: fraction of substrate reacted: ~13-16% (15.68% repeat 1, 13.17% repeat 2)
Whole data set: some 4,100 sequences, median “relative kcat/Km (krel) vs genomic leader AAAGAU” near 1.7, cut for the highest 2% near 6.5. What follows is part of a selection rich in the highest values, with near analogues and random picks from the rest.
REPORTED_ENDPOINT: relative kcat/Km
Answer as a number with no unit attached.

Would you please look over these solved cases?
sequence_string=TCACAT reported_endpoint="relative kcat/Km" measured_result=4.18
sequence_string=CTCTTT reported_endpoint="relative kcat/Km" measured_result=4.98
sequence_string=CCCTCC reported_endpoint="relative kcat/Km" measured_result=3.38
sequence_string=TCCTTA reported_endpoint="relative kcat/Km" measured_result=4.61
sequence_string=CTCATT reported_endpoint="relative kcat/Km" measured_result=5.23
sequence_string=GGCTCC reported_endpoint="relative kcat/Km" measured_result=1.96

Looking up `TCCTCA` , I see its relative kcat/Km listed as 4.2

Looking up `CACCTA` , I see its relative kcat/Km listed as 2.44

Looking up `CTCTCT` , I see its relative kcat/Km listed as 4.84

---

Target: E. coli RNase P holoenzyme (M1 P RNA + rnpA protein)
Sequence: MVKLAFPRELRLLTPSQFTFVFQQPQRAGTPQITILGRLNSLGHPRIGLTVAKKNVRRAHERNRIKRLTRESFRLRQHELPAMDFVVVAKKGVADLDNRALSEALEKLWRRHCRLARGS
Assay: relative kcat/Km (krel) vs genomic leader AAAGAU (relative (reference leader = 1)); higher = faster RNase P cleavage
Conditions: fraction of substrate reacted: ~9-10% (9.79% repeat 1, 9.1% repeat 2)
Over roughly 4,100 sequences, “relative kcat/Km (krel) vs genomic leader AAAGAU” has its median near 1.7; the highest 2% begin near 6.5. Only a selection was taken, and the highest values are over-represented in it overall.
Label T for high-side relative kcat/Km (at or above 3) and F for low-side relative kcat/Km (below it).

The following sequences have reported results that may help.
sequence_string=TCCTGA classification=T
sequence_string=GTCTTT classification=T
sequence_string=TAATTA classification=F
sequence_string=CTCGCA classification=T

Ask | Please indicate if the recorded relative kcat/Km for `GCGAGA` meets or exceeds 3.
Reply | F

---

Biological target: E. coli RNase P holoenzyme (M1 P RNA + rnpA protein) (UniProt P0A7Y8)
Sequence: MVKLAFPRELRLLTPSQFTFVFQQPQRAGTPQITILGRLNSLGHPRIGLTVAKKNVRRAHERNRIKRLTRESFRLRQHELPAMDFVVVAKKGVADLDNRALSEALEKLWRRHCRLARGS
Assay: relative kcat/Km (krel) vs genomic leader AAAGAU (relative (reference leader = 1)); higher = faster RNase P cleavage
Conditions: fraction of substrate reacted: ~13-16% (15.68% repeat 1, 13.17% repeat 2)
The full ranking holds about 4,100 sequences; the median of “relative kcat/Km (krel) vs genomic leader AAAGAU” is about 1.7, and the highest 2% start at about 6.5. The full list was thinned out, with the highest values kept by preference.
REPORTED_ENDPOINT: relative kcat/Km
Answer as a number with no unit attached.

Would you please look over these solved cases?
sequence_string=GTCTAG measured_result=3.25
sequence_string=TACGAA measured_result=5.68
sequence_string=CCCCGC measured_result=2.8
sequence_string=GCCTCC measured_result=3.32
sequence_string=AGCCGC measured_result=2.5
sequence_string=CACGAT measured_result=2.22

Looking up `CACATC` , I see its relative kcat/Km listed as 3.64

Looking up `GACGAC` , I see its relative kcat/Km listed as 5.87

Looking up `TACGTA` , I see its relative kcat/Km listed as 2.47

---

Target: E. coli RNase P holoenzyme (M1 P RNA + rnpA protein)
Sequence: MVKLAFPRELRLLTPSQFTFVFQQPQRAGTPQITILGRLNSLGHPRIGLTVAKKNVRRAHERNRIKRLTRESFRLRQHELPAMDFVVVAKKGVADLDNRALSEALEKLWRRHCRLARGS
Experiment: relative kcat/Km (krel) vs genomic leader AAAGAU (relative (reference leader = 1)); higher = faster RNase P cleavage
Details: fraction of substrate reacted: ~13-16% (15.68% repeat 1, 13.17% repeat 2)
Whole data set: some 4,100 sequences, median “relative kcat/Km (krel) vs genomic leader AAAGAU” near 1.7, cut for the highest 2% near 6.5. Many of the other results were omitted from the sample, so the highest values are more common in it than they were.
REPORTED_ENDPOINT: relative kcat/Km
Answer as a number with no unit attached.

Would you please look over these solved cases?
sequence_string=AACGAA measured_result=3.68
sequence_string=CACGAG measured_result=2.47
sequence_string=CTCACA measured_result=3.94
sequence_string=TGATAC measured_result=3.97

Looking up `ACCTAT` , I see its relative kcat/Km listed as 4.66

Looking up `CTCATC` , I see its relative kcat/Km listed as 4.57

Looking up `GGCACT` , I see its relative kcat/Km listed as 1.75

Looking up `CTCATG` , I see its relative kcat/Km listed as 1.28

Looking up `ATCGTA` , I see its relative kcat/Km listed as 3.67

Looking up `GGAAGA` , I see its relative kcat/Km listed as 2.24

---

Biological target: E. coli RNase P holoenzyme (M1 P RNA + rnpA protein)
Sequence: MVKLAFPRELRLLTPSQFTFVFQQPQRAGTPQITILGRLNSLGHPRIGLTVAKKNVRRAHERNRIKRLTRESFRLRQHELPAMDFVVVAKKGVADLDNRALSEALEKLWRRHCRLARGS
Test: relative kcat/Km (krel) vs genomic leader AAAGAU (relative (reference leader = 1)); higher = faster RNase P cleavage
Conditions: fraction of substrate reacted: ~13-16% (15.68% repeat 1, 13.17% repeat 2)
The full ranking holds about 4,100 sequences; the median of “relative kcat/Km (krel) vs genomic leader AAAGAU” is about 1.7, and the highest 2% start at about 6.5. Many of the other results were omitted from the sample, so the highest values are more common in it than they were.
REPORTED_ENDPOINT: relative kcat/Km
Answer as a number with no unit attached.

Looking up `TTCTTC` , I see its relative kcat/Km listed as 5.94

Looking up `CTTCTT` , I see its relative kcat/Km listed as 3.05

Looking up `AGTTCG` , I see its relative kcat/Km listed as 0.601

Looking up `TGCTTC` , I see its relative kcat/Km listed as 2.83

Looking up `AGTCGA` , I see its relative kcat/Km listed as 3.65

---

Consider the following sequences and their measured relative kcat/Km readings.
Biological target: E. coli RNase P holoenzyme (M1 P RNA + rnpA protein) (UniProt P0A7Y8)
Sequence: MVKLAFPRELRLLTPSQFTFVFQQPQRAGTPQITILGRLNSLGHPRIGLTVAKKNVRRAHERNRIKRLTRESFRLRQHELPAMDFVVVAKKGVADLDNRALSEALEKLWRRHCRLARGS
Assay: relative kcat/Km (krel) vs genomic leader AAAGAU (relative (reference leader = 1)); higher = faster RNase P cleavage
Conditions: fraction of substrate reacted: ~13-16% (15.68% repeat 1, 13.17% repeat 2)
The full ranking holds about 4,100 sequences; the median of “relative kcat/Km (krel) vs genomic leader AAAGAU” is about 1.7, and the highest 2% start at about 6.5. For the sample, the highest values were picked, then their nearest neighbours and some sequences at random.
Answer as a number with no unit attached.

sequence_string=TCCTAC reported_endpoint="relative kcat/Km" measured_result=5.74
sequence_string=GACGAG reported_endpoint="relative kcat/Km" measured_result=1.49
sequence_string=TCCTTT reported_endpoint="relative kcat/Km" measured_result=4.6

Looking up `GTCGAC` , I see its relative kcat/Km listed as 5.92

// provenance: the supplement of paper PMC9433436
